assay-endpoint: melting point

Ask: Returns the measured melting point for the input compound. Input: NC1=NS(=O)(=O)N(Cc2ccccc2)c2nc(-c3ccccc3)n(Cc3ccc(Cl)cc3)c21
Result: 245 to 247 °C

Ask: Then what about the compound NC1=NS(=O)(=O)Nc2nc(CCc3ccccc3)[nH]c21 ?
Result: 190 to 192 °C

Ask: Then what about the compound NC1=NS(=O)(=O)Nc2nc(C3CCCCC3)[nH]c21 ?
Result: 263 to 265 °C

Ask: Then what about the compound NC1=NS(=O)(=O)N(Cc2ccccc2)c2nc(-c3ccccc3)n(Cc3ccccc3)c21 ?
Result: 238 to 240 °C

Ask: Then what about the compound NC1=NS(=O)(=O)Nc2nc(C3CCOC3)[nH]c21 (centres unmarked) ?
Result: 238 to 240 °C

----------
Kindly state PC J774 macrophages (%) (percentage of non-specific cytotoxicity) for each of the entries shown.
- System: J774 murine macrophages
- measurement-notes: Non-specific cytotoxicity against J774 murine macrophages (MTT/formazan)
- Type: cell-based
- condition-set: 100 μM compound, 48 hours, MTT
Supply the numeric figure in %, leaving out any unit text.

Ask: Param readout = PC J774 macrophages (%) (percentage of non-specific cytotoxicity); param system = J774 murine macrophages; param query = NC1=NS(=O)(=O)Nc2nc(Cc3ccccc3)[nH]c21 [drawing 19] ; response: value
Result: 17.6

Ask: Then what about the compound CN1c2nc(-c3ccccc3)[nH]c2C(N)=NS1(=O)=O [drawing 22] ?
Result: 22.5

Ask: Then what about the compound NC1=NS(=O)(=O)N(Cc2ccc(Cl)cc2)c2nc(-c3ccccc3F)[nH]c21 [drawing 21] ?
Result: 100.0

Ask: Then what about the compound NC1=NS(=O)(=O)Nc2nc(C3CCCCC3)[nH]c21 [drawing 20] ?
Result: 1.4

Ask: Then what about the compound CN(C/C=C/C#CC(C)(C)C)Cc1cccc2ccccc12 [Terbinafine, reference compound] ?
Result: 10.0

----------
- measurement-target: cruzipain (Trypanosoma cruzi, UniProt P25779)
- Sequence (P25779 123-467): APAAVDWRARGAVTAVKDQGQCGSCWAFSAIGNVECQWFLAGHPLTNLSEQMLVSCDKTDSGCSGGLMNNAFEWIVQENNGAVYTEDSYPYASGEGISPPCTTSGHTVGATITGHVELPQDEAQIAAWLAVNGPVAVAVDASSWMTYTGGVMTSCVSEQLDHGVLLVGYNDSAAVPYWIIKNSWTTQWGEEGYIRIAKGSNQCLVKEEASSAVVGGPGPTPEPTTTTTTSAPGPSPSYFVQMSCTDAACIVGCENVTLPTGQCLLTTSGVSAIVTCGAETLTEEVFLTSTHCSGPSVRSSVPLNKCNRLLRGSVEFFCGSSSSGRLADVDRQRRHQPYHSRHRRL
- measurement-notes: Cruzipain enzyme inhibition (chromogenic substrate Bz-Pro-Phe-Arg-p-NA, absorbance 410 nm)
- Assay type: biochemical
- condition-set: 100 μM inhibitor, 10 min preincubation, pH 7.6; read-out: % Inhibition CP (cruzipain)
// label = TRUE if inhibition at 100 µM is not less than 40%, otherwise FALSE

Ask: Has NC1=NS(=O)(=O)N(Cc2ccc(Cl)cc2)c2nc(C3CCCCC3)n(Cc3ccc(Cl)cc3)c21 a recorded inhibition at 100 µM greater than or equal to 40%?
Result: FALSE

Ask: Then what about the molecule NC1=NS(=O)(=O)N(Cc2ccc(Cl)cc2)c2nc(C3CCCCC3)[nH]c21 ?
Result: FALSE

Ask: Then what about the molecule NC1=NS(=O)(=O)N(Cc2ccc(Cl)cc2)c2nc(-c3ccccc3F)[nH]c21 [drawing 27] ?
Result: FALSE

Ask: Then what about the molecule NC1=NS(=O)(=O)N(Cc2ccccc2)c2nc(C3CCCCC3)n(Cc3ccccc3)c21 [drawing 23] ?
Result: TRUE

----------
Kindly state PC J774 macrophages (%) (percentage of non-specific cytotoxicity) for each of the entries shown.
- Test system: J774 murine macrophages
- measurement-notes: Non-specific cytotoxicity against J774 murine macrophages (MTT/formazan)
- Assay type: cell-based
- condition-set: 200 μM compound, 48 hours, MTT
Supply the numeric figure in %, leaving out any unit text.

Ask: Returns the measured PC J774 macrophages (%) (percentage of non-specific cytotoxicity) for the input compound. Input: NC1=NS(=O)(=O)N(Cc2ccc(Cl)cc2)c2nc(-c3ccccc3F)[nH]c21 [drawing 21]
Result: 100.0

Ask: Then what about the compound CN(C/C=C/C#CC(C)(C)C)Cc1cccc2ccccc12 [Terbinafine, reference compound] ?
Result: 26.0

Ask: Then what about the compound CN1c2nc(-c3ccccc3)[nH]c2C(N)=NS1(=O)=O [drawing 22] ?
Result: 77.5

Ask: Then what about the compound NC1=NS(=O)(=O)Nc2nc(C3CCCCC3)[nH]c21 [drawing 20] ?
Result: 8.0

Ask: Then what about the compound NC1=NS(=O)(=O)Nc2nc(Cc3ccccc3)[nH]c21 [drawing 19] ?
Result: 24.3

----------
Kindly state inhibition at 25 µM for each of the entries shown.
- measurement-target: cruzipain (Trypanosoma cruzi)
- measurement-notes: Cruzipain enzyme inhibition (chromogenic substrate Bz-Pro-Phe-Arg-p-NA, absorbance 410 nm)
- Format: biochemical
- condition-set: 25 μM inhibitor, 10 min preincubation, pH 7.6; read-out: % Inhibition CP (cruzipain)
- Description: The capacity of inhibiting the cruzipain enzyme was performed according to the protocol detailed below: cruzipain (10 μL) was incubated with a reaction mixture containing a final concentration of 50 mM of Tris-HCl buffer solution, pH 7.6, 10 mM β-mercaptoethanol and 25, 50 or 100 μM of the inhibitor during 10 min at ambient temperature. […]
// unit must come after the numeric part

Ask: Returns the measured inhibition at 25 µM for the input compound. Input: NC1=NS(=O)(=O)N(Cc2ccccc2)c2nc(C3CCCCC3)n(Cc3ccccc3)c21 [drawing 23]
Result: 0%

Ask: Then what about the compound NC1=NS(=O)(=O)N(Cc2ccc(Cl)cc2)c2nc(-c3ccccc3F)[nH]c21 [drawing 27] ?
Result: 7%

Ask: Then what about the compound NC1=NS(=O)(=O)N(Cc2ccc(Cl)cc2)c2nc(C3CCCCC3)[nH]c21 ?
Result: 0%

Ask: Then what about the compound NC1=NS(=O)(=O)N(Cc2ccccc2)c2nc(C3CCCCC3)n(Cc3ccc(Cl)cc3)c21 ?
Result: 10%

----------
- measurement-target: cruzipain (Trypanosoma cruzi, UniProt P25779)
- measurement-notes: Cruzipain enzyme inhibition (chromogenic substrate Bz-Pro-Phe-Arg-p-NA, absorbance 410 nm)
- Type: biochemical
- condition-set: 50 μM inhibitor, 10 min preincubation, pH 7.6; read-out: % Inhibition CP (cruzipain)
assay-endpoint: inhibition at 50 µM (%)
Supply the numeric figure in %, leaving out any unit text.

Ask: Returns the measured inhibition at 50 µM for the input compound. Input: NC1=NS(=O)(=O)N(Cc2ccc(Cl)cc2)c2nc(-c3ccccc3F)[nH]c21 [drawing 27]
Result: 30

Ask: Then what about the compound NC1=NS(=O)(=O)N(Cc2ccccc2)c2nc(C3CCCCC3)n(Cc3ccc(Cl)cc3)c21 ?
Result: 39

Ask: Then what about the compound NC1=NS(=O)(=O)N(Cc2ccc(Cl)cc2)c2nc(C3CCCCC3)[nH]c21 ?
Result: 7

Ask: Then what about the compound NC1=NS(=O)(=O)N(Cc2ccccc2)c2nc(C3CCCCC3)n(Cc3ccccc3)c21 [drawing 23] ?
Result: 30

----------
- Test system: J774 murine macrophages
- measurement-notes: Non-specific cytotoxicity against J774 murine macrophages (MTT/formazan)
- Format: cell-based
- condition-set: Mus musculus, J774, 48 h, read-out: IC50 concentration of compound which reduces the growth of macrophages by 50%
assay-endpoint: IC50 (µM)
Supply the numeric figure in µM, leaving out any unit text.

Ask: Returns the measured IC50 for the input molecule. Input: CC1CS(=O)(=O)CCN1N=Cc1ccc([N+](=O)[O-])o1 (centres unmarked) [Nifurtimox, reference compound]
Result: 316

----------
- System: Trypanosoma cruzi, epimastigote form of the Tulahuen 2 strain
- measurement-notes: In vitro growth inhibition of Trypanosoma cruzi epimastigotes (Tulahuen 2 strain), absorbance at 600 nm
- Type: cell-based
- condition-set: 120 h, absorbance on day 5, duplicate, error ±3%, read-out: IC50 Anti-T. cruzi activity of the Tulahuen 2 strain
- Experimental: The studies of the antichagasic activity were performed in vitro against Trypanosoma cruzi, on the epimastigote form of the Tulahuen 2 strains, (from the strains collection of the Biological Physicochemistry Laboratory, of the Institute of Biological Chemistry, of the Faculty of Science, University of the Republica Oriental of Uruguay, Uruguay). […] The growth of the parasite was followed during 11 days by culture absorbance measurements at 600 nm, proportional to the number of cells present. […]
Class (by IC50) -- low value (below 7 µM), medium value (7 µM to below 20 µM), high value (20 µM or more)

Ask: Which class holds NC1=NS(=O)(=O)N(Cc2ccccc2)c2nc(-c3ccccc3)n(Cc3ccc(Cl)cc3)c21 [drawing 18] ?
Result: medium value

Ask: Then what about the molecule CC1CS(=O)(=O)CCN1N=Cc1ccc([N+](=O)[O-])o1 (stereo not drawn) [Nifurtimox, reference compound] ?
Result: medium value

Ask: Then what about the molecule O=C(Cn1ccnc1[N+](=O)[O-])NCc1ccccc1 [Benznidazole, N-benzyl-2-nitro-1-imidazole acetamide, reference compound] ?
Result: medium value

Ask: Then what about the molecule NC1=NS(=O)(=O)N(Cc2ccccc2)c2nc(-c3ccccc3)n(Cc3ccccc3)c21 [drawing 10] ?
Result: low value

Ask: Then what about the molecule NC1=NS(=O)(=O)N(Cc2ccccc2)c2nc(-c3ccccc3)[nH]c21 ?
Result: high value

Ask: Then what about the molecule NC1=NS(=O)(=O)Nc2nc(-c3ccsc3)[nH]c21 ?
Result: high value
